# testDetails: Volume of distribution at steady state in CD-1 mouse at 0.2 mg/kg, iv and measured upto 24 hrs
# Type: ADME, organism-based
# conditionParameters: in vivo, read-out: Vdss
parameterMeasured: Vd (L/kg)

Cn1cc(-c2ccc(CNc3cc(-c4cnc5cc(OCCCN6CCCC6)ccn45)ncn3)cc2)cn1: 11

====

# testDetails: Apparent passive permeability of compound in human Caco-2 cells at 1 uM and measured after 2 hrs by LC-MS/MS analysis
# Format: ADME, cell-based
Could you label it Fulfilled if measured Papp at 2 h, 1 µM is 6 ×10⁻⁶ cm/s or higher, and Not fulfilled otherwise?

Cn1cc(-c2ccc(CNc3cc(-c4cnc5cc(OCCCN6CCCC6)ccn45)ncn3)cc2)cn1: Not fulfilled
Cn1cc(-c2ccc(CNc3cc(-c4cnc5cc(OCCO)ccn45)ncn3)cc2)cn1: Fulfilled
CN1CC(COc2ccn3c(-c4cc(NCc5ccc(-c6cnn(C)c6)cc5)ncn4)cnc3c2)C1: Not fulfilled
Cn1cc(-c2ccc(CNc3cc(-c4cnc5cc(OCCN6CCC(C)(C#N)CC6)ccn45)ncn3)cc2)cn1: Not fulfilled
Cn1cc(-c2ccc(CNc3cc(-c4cnc5cc(OCCCN6CCC(C)(F)CC6)ccn45)ncn3)cc2)cn1: Not fulfilled
Cn1cc(-c2ccc(CNc3cc(-c4cnc5cc(OCCN6CCn7nncc7C6)ccn45)ncn3)cc2)cn1: Fulfilled
Cn1cc(-c2ccc(CNc3cc(-c4cnc5cc(OCCCNC6COC6)ccn45)ncn3)cc2)cn1: Fulfilled
COc1ccn2c(-c3cc(NCc4ccc(-c5cnn(C)n5)cc4)ncn3)cnc2c1: Fulfilled
COCCOc1ccn2c(-c3cc(NCc4ccc(-c5cnn(C)c5)cc4)ncn3)cnc2c1: Fulfilled
Cc1nc(-c2ccc(CNc3cc(-c4cnc5cc(OCCN6CCC(=O)N(C)CC6)ccn45)ncn3)cc2)co1: Fulfilled
COCCOc1ccn2c(-c3cc(NCc4ccc(-c5cnn(C)n5)cc4)ncn3)cnc2c1: Fulfilled
Cn1cc(-c2ccc(CNc3cc(-c4cnc5cc(OCCN6CCCC6)ccn45)ncn3)cc2)cn1: Fulfilled

====

Consider the following molecules and their measured IC50 readings.
# experimentalTarget: Mast/stem cell growth factor receptor Kit (Homo sapiens, UniProt P10721, V654A)
# Sequence (P10721 26-976 V654A limits assumed): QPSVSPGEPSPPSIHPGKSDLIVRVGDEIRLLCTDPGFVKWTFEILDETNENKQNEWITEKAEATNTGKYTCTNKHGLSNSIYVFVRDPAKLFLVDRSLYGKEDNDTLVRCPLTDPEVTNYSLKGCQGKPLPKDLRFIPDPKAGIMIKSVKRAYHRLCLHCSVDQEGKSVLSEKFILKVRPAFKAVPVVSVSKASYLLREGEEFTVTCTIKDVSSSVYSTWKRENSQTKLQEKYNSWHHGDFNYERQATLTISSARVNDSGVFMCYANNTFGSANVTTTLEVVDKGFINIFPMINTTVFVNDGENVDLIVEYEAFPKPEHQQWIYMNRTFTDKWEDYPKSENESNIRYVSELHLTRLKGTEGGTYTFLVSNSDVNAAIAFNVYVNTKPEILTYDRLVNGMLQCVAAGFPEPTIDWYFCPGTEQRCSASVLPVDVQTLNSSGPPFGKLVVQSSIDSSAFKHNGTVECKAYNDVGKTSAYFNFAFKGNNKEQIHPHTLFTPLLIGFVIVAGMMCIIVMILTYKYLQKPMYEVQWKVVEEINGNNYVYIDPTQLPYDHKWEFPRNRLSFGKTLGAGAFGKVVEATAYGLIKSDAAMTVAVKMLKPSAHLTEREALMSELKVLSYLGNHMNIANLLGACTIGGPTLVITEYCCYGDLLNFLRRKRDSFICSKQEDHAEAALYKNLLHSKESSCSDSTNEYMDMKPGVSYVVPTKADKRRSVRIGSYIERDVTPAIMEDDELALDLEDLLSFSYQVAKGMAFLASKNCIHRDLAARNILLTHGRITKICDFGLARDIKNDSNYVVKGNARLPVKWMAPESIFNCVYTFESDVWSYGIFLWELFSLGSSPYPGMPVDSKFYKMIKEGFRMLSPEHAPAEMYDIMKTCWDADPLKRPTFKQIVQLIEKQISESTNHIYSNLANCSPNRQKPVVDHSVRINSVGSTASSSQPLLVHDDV
# testDetails: Inhibition of recombinant human KIT V654A mutant using polyGT and ATP as substrate preincubated for 20 mins followed by substrate addition and measured after 240 mins by FRET assay
parameterMeasured: IC50 (nM)

COCCOc1ccn2c(-c3cncc(NCc4ccc(N5CCCC5)nc4)c3)cnc2c1: 12
c1ccn2c(-c3cncc(NCc4ccc(N5CCCC5)nc4)c3)cnc2c1: 12
c1ccn2c(-c3nccc(NCc4ccc(N5CCCC5)cc4)n3)cnc2c1: 5.6
CN1CCN(CCOc2ccn3c(-c4cncc(NCc5ccc(N6CCCC6)nc5)c4)cnc3c2)CC1: 11
COc1ccn2c(-c3cncc(NCc4ccc(N5CCCC5)nc4)c3)cnc2c1: 13
COc1ccn2c(-c3cc(NCc4ccc(-c5ccccc5)cc4)ncn3)cnc2c1: 4.6
c1ccc(-c2ccc(CNc3ccnc(-c4cnc5ccccn45)n3)cc2)cc1: 15
CN(Cc1ccc(N2CCCC2)nc1)c1cncc(-c2cnc3ccccn23)c1: 240
CC(Nc1cncc(-c2cnc3ccccn23)c1)c1ccc(N2CCCC2)nc1 (stereo unspecified): 83

====

# testDetails: Metabolic stability in human liver microsomes assessed as intrinsic clearance in presence of NADPH by UPLC analysis
# Type: ADME, Microsome
# conditionParameters: read-out: CLH
parameterMeasured: microsomal CLint

c1ccn2c(-c3nccc(NCC4CCN(C5CCCC5)CC4)n3)cnc2c1: 10 µL/min/mg
c1ccn2c(-c3cncc(NCc4ccc(N5CCCC5)nc4)c3)cnc2c1: > 75 µL/min/mg
CN1CCN(CCOc2ccn3c(-c4cncc(NCc5ccc(N6CCCC6)nc5)c4)cnc3c2)CC1: 10 µL/min/mg
c1ccc2ncc(CNc3cncc(-c4cnc5ccccn45)c3)cc2c1: 10 µL/min/mg
c1ccn2c(-c3cc(NCc4ccc(N5CCCC5)nc4)ncn3)cnc2c1: 10 µL/min/mg
COCCOc1ccn2c(-c3cncc(NCc4ccc(N5CCCC5)nc4)c3)cnc2c1: > 75 µL/min/mg
COCCOc1ccn2c(-c3cc(NCc4ccc(-c5cnn(C)c5)cc4)ncn3)cnc2c1: 10 µL/min/mg
c1ccc(-c2ccc(CNc3ccnc(-c4cnc5ccccn45)n3)cc2)cc1: 10 µL/min/mg
COc1ccn2c(-c3cncc(NCc4ccc(N5CCCC5)nc4)c3)cnc2c1: > 75 µL/min/mg
CC(Nc1cncc(-c2cnc3ccccn23)c1)c1ccc(N2CCCC2)nc1 (configuration not stated): > 75 µL/min/mg
COc1ccn2c(-c3cc(NCc4ccc(-c5ccccc5)cc4)ncn3)cnc2c1: 10 µL/min/mg
COc1ccn2c(-c3cc(NCc4ccc(-c5cnn(C)c5)cc4)ncn3)cnc2c1: < 10 µL/min/mg
